Below, each entry is listed with its recorded pIC50.
system: DLD-1; assay: Antiproliferative activity against human DLD-1 cells harboring KRAS G13D mutant assessed as inhibition of cell growth; format: functional, cell-based
pIC50: −log10 of the molar value.
endpoint name: pIC50

>>> measured_number("COc1cc2nc(C)nc(N[C@H](C)c3cc(N)cc(C(F)(F)F)c3)c2cc1O[C@H]1CCOC1")
6.77
>>> measured_number("COc1ccc(C(=O)N2CCC3(CCC(CN4CCN(C(=O)[C@H]5CC[C@H](c6cc7c(N[C@H](C)c8cc(N)cc(C(F)(F)F)c8)ncnc7n(C)c6=O)CC5)CC4)CC3)CC2)cc1N1CCC(=O)NC1=O")
6.97

====

test system: SW-620; assay: Antiproliferative activity against human SW620 cells harboring KRAS G12V mutant assessed as inhibition of cell growth; format: functional, cell-based
pIC50: −log10 of the molar value.
Below, each entry is listed with its recorded pIC50.
endpoint name: pIC50

>>> measured_number("COc1ccc(C(=O)N2CCC3(CCC(CN4CCN(C(=O)[C@H]5CC[C@H](c6cc7c(N[C@H](C)c8cc(N)cc(C(F)(F)F)c8)ncnc7n(C)c6=O)CC5)CC4)CC3)CC2)cc1N1CCC(=O)NC1=O")
7.44
>>> measured_number("COc1cc2nc(C)nc(N[C@H](C)c3cc(N)cc(C(F)(F)F)c3)c2cc1O[C@H]1CCOC1")
7.30
